test: Lipophilicity, logD of the compound at pH 7.4; type: physicochemical; details: buffer
# Lookup of reported logD keyed by entry
Quick one: just the number, no unit, thanks!

[2H]C1([2H])Oc2ccc(S(=O)(=O)N3CC[C@@H](C(=O)Nc4ccc5scnc5c4)C3)cc2C1([2H])[2H]	2.45

Complete the entry with logD for O=C(Nc1ccc2scnc2c1)[C@@H]1CCN(S(=O)(=O)c2ccc3c(c2)OCO3)C1 2.43

Complete the entry with logD for O=C(Nc1ccc2scnc2c1)[C@@H]1CCN(S(=O)(=O)c2ccc3ncccc3c2)C1 1.99

Complete the entry with logD for O=C(Nc1ccc2scnc2c1)[C@@H]1CCN(S(=O)(=O)c2cccnc2)C1 1.65

Complete the entry with logD for O=C(Nc1ccc2scnc2c1)[C@H]1CN(S(=O)(=O)c2ccc3c(c2)CCO3)C[C@@H]1C(F)(F)F 3.65

Complete the entry with logD for O=C(Nc1ccc2scnc2c1)[C@@H]1CCN(S(=O)(=O)c2ccc3c(c2)CCC3)C1 3.54

Complete the entry with logD for C[C@@H]1CN(S(=O)(=O)c2ccc3c(c2)CCO3)C[C@@H]1C(=O)Nc1ccc2scnc2c1 2.88

Complete the entry with logD for O=C(Nc1ccc2scnc2c1)[C@@H]1CCN(S(=O)(=O)c2ccc(Cl)nc2)C1 2.41

Complete the entry with logD for O=C(Nc1ccc2scnc2c1)[C@H]1CCN(S(=O)(=O)c2ccc3c(c2)CCO3)C1 2.51

// provenance: ChEMBL document CHEMBL5236576
